Data origin, for the record: patent US4959361A

Test system: PAF Induced Bronchoconstriction
Assay: PAF induced bronchoconstriction assay, intravenous testing
Format: in vivo, guinea pig
Details: Table II (*); at 0. mg/kg i.v. (dose digit cut off)
Entries and their % inhibition of bronchoconstriction
Write it as a number; the unit % goes unstated.

Here is how some compounds turned out for % inhibition of bronchoconstriction.
Incoming: // fetch % inhibition of bronchoconstriction for COC1c2ccccc2C(=O)N1CC#Cc1ccc2c(c1)C(c1ccccc1F)=NCc1nnc(C)n1-2 (centres unmarked) ; system: PAF Induced Bronchoconstriction
Outgoing: 99

Incoming: // fetch % inhibition of bronchoconstriction for `Cc1nnc2n1-c1ccc(C#CCN3C(=O)c4cccc5cccc3c45)cc1C(c1ccccc1F)=NC2` ; system: PAF Induced Bronchoconstriction
Outgoing: 99

Incoming: // fetch % inhibition of bronchoconstriction for `Cc1nnc2n1-c1ccc(C#CCN3C(=O)C(=O)c4ccccc43)cc1C(c1ccccc1Cl)=NC2` ; system: PAF Induced Bronchoconstriction
Outgoing: 100

Incoming: // fetch % inhibition of bronchoconstriction for `Cc1nnc2n1-c1ccc(C#CCN3C(=O)COc4ccccc43)cc1C(c1ccccc1F)=NC2` ; system: PAF Induced Bronchoconstriction
Outgoing: 100

Alright, here's another compound for you.
Incoming: // fetch % inhibition of bronchoconstriction for `Cc1nnc2n1-c1ccc(C#CCN3C(=O)CSc4ccccc43)cc1C(c1ccccc1F)=NC2` ; system: PAF Induced Bronchoconstriction
Outgoing: 99
